Assay: 14C assay with IPTG-induced recombinant E. coli cells (14CO2 capture from [14C]-carboxyl-labeled dicamba)
Details: IPTG-induced recombinant E. coli cells; [14C]-carboxyl-labeled dicamba; 14CO2 capture
endpoint: Dicamba Decarboxylase Activity

* 4 (protein, listed as Lactobacillus buchneri) MAKVITLEEHFSSQKLGQKMAEVLPKRPIGNVSPKMQDYMQRSLPPEAELEDVTGSRIQWMDQHQISMQILSYGNQNPQNSDPKFAVELTKLANDELAKAVAKAPDRFRAFASLPVSHPTDAAAELKRGVEELGFKGAMLVRPTSQAHPFFDDPFYLPIFEAAANLNVPVYLHPSFPDSQIIDYYYSNGPWDDKVSGILGTAGYGWHTDVGIQTVRLLLSGVFEKYPNLKLISGHWGEFASFALERMDQVMYPETNLSEPISKIYRDHVYVTPSGILTEPQLKFVKDEVGIEHLLYSIDYPYIKPENSGSFIESSPLTDEEKELFAHGNAEKLLQL | High
